molecular target: synthetic Aβ(1-40) (Homo sapiens)
Sequence (P05067 672-711): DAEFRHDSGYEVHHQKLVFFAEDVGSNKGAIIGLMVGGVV
Consider the cut-off 50 nM. If the recorded Ki is strictly smaller, the label is yes (1); if not, the label is no (0).

Past entries and their recorded results:
{"columns": ["SMILES ENTRY", "ASSAYED SYSTEM", "CATEGORY"],
 "data": [
  ["COc1ccc2sc(-c3ccc(F)cc3)nc2c1OC", "synthetic Aβ(1-40) (Homo sapiens)", "no (0)"],
  ["CS(=O)(=O)c1ccc2nc(-c3ccc(F)cc3)sc2c1", "synthetic Aβ(1-40) (Homo sapiens)", "no (0)"],
  ["Nc1cccc(F)c1-c1nc2ccc(O)cc2s1", "synthetic Aβ(1-40) (Homo sapiens)", "yes (1)"],
  ["O=[N+]([O-])c1cc(F)ccc1-c1nc2ccccc2s1", "synthetic Aβ(1-40) (Homo sapiens)", "no (0)"],
  ["COc1cc(O)c2nc(-c3ccc(F)cc3)sc2c1", "synthetic Aβ(1-40) (Homo sapiens)", "no (0)"],
  ["CNc1ccc2nc(-c3ccc(F)cc3)sc2c1", "synthetic Aβ(1-40) (Homo sapiens)", "yes (1)"]
]}

Hello, I'm reviewing records and need to know if Ki of `Nc1c(F)c(F)c(-c2nc3ccc(O)cc3s2)c(F)c1F` is below 50 nM. Could you check?
no (0)

# iterate: `Oc1ccc2nc(-c3ccc(CF)cc3)sc2c1`
yes (1)

# iterate: `Nc1ccc(F)cc1-c1nc2ccc(O)cc2s1`
yes (1)

# iterate: `COc1cc2nc(-c3ccc(F)cc3)sc2cc1OC`
no (0)

# iterate: `Nc1cc(F)ccc1-c1nc2ccc(O)cc2s1`
yes (1)

# iterate: `CNc1c(F)cccc1-c1nc2ccc(O)cc2s1`
yes (1)

# iterate: `CN(C)c1ccc2nc(-c3ccc(O)cc3)sc2c1`
yes (1)
